- Measured On: PIM1 (Homo sapiens, UniProt P11309)
- Sequence (P11309 whole entry): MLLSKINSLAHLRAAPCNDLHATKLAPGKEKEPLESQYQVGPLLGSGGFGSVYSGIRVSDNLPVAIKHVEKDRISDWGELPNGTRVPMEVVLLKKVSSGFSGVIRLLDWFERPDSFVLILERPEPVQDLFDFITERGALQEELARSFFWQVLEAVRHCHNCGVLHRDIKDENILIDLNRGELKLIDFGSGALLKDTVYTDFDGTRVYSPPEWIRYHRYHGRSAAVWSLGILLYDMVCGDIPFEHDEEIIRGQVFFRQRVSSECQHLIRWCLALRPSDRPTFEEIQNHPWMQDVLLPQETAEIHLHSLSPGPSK
- Test Method Notes: In vitro selectivity assay
- Format: biochemical
- Condition Notes: selectivity panel
Measurement Label: IC50

Problem: Entry under review: Cn1cc(-c2cc3cnc(Nc4ccc(-c5cncn5/C=C/C(=O)NO)cc4Cl)cc3n2C(=O)OC(C)(C)C)cn1 . Reported IC50?
Result: > 10 µM

###

- Measured On: MUSK (Homo sapiens, UniProt O15146)
- Construct: ICE Bioscience Inc. (contract assay provider)
- Sequence (O15146 24-869): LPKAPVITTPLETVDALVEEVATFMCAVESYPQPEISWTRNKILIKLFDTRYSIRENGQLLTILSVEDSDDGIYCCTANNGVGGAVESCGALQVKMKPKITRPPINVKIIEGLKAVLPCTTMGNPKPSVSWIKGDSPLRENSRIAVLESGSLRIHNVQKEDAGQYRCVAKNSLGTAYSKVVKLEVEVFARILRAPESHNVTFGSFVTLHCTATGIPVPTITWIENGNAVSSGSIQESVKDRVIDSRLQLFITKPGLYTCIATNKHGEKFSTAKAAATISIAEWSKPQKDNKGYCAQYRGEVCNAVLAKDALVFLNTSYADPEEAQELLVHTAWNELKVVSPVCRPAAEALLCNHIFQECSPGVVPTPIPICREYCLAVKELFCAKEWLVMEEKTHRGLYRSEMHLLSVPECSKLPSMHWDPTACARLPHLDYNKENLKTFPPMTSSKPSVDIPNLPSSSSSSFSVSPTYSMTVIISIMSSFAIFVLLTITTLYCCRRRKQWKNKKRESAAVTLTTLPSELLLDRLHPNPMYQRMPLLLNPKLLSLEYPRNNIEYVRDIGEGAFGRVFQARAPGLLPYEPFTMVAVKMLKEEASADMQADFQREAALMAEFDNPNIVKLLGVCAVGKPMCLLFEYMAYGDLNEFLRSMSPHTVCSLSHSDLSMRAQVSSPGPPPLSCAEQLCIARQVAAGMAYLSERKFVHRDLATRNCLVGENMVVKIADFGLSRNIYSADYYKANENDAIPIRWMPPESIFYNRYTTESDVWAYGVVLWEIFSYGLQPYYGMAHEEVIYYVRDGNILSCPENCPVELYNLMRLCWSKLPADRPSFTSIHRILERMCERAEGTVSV
- Test Method Notes: In vitro selectivity assay
- Assay type: biochemical
- Condition Notes: selectivity panel
Measurement Label: IC50

Problem: Entry under review: Cn1cc(-c2cc3cnc(Nc4ccc(-c5cncn5/C=C/C(=O)NO)cc4Cl)cc3n2C(=O)OC(C)(C)C)cn1 . Reported IC50?
Result: > 10 µM
